Listed here: items and their measured half-life.
Test: Half-life at pH 7.4 in human blood
Format: ADME, organism-based

INSERT INTO measurements (compound, obs_value) VALUES
  ('Cc1onc(-c2ccccc2)c1C(=O)NC1C(=O)N2C1SC(C)(C)[C@@H]2C(=O)OCOC(=O)C1=CN(C)C=CC1 (some centres not stated)', '0.125 h');

From here, focus on the item given below.
Find the recorded half-life belonging to COc1cccc(OC)c1C(=O)NC1C(=O)N2C1SC(C)(C)[C@@H]2C(=O)OCOC(=O)C1=CN(C)C=CC1 (some centres not stated) and report it. 1.93 h

###

Measured half-life, listed per entry for reference.
Experiment: Half-life at pH 7.4 in rabbit blood
Type: ADME, organism-based, Oryctolagus cuniculus
Your answer should be a plain number; it is taken to be in min.

INSERT INTO measurements (compound, readout_name, obs_value) VALUES
  ('Cc1onc(-c2ccccc2)c1C(=O)NC1C(=O)N2C1SC(C)(C)[C@@H]2C(=O)OCOC(=O)C1=CN(C)C=CC1 (some centres not stated)', 'half-life', 23.7);

Would you kindly look at the next entry?
What does the record list as half-life for COc1cccc(OC)c1C(=O)NC1C(=O)N2C1SC(C)(C)[C@@H]2C(=O)OCOC(=O)C1=CN(C)C=CC1 (some centres not stated) ? 10.7

###

Assay: Concentration of compound after 10 minutes in rabbit blood
Type: ADME, organism-based, Oryctolagus cuniculus
readout name: concentration at 10 min (ng/mL)
Enter your answer as a number in ng/mL; do not include the unit.

Consider the compound shown here: Cc1onc(-c2ccccc2)c1C(=O)N[C@@H]1C(=O)N2[C@@H]1SC(C)(C)[C@@H]2C(=O)[O-].[Na+] What is its recorded concentration at 10 min? 9100

###

Assay: Half-life in phosphate buffer (0.05 M, mu = 0.15) at 30 degree Celsius with pH 7.43
Type: ADME
# reported half-life; entries follow
The number alone won't do; follow it with the unit.

INSERT INTO results (compound, obs_value) VALUES
  ('Cc1onc(-c2ccccc2Cl)c1C(=O)NC1C(=O)N2C1SC(C)(C)[C@@H]2C(=O)OCOC(=O)c1ccc[n+](C)c1.[I-] (some centres undefined)', '3.5 min'),
  ('Cc1onc(-c2ccccc2)c1C(=O)NC1C(=O)N2C1SC(C)(C)[C@@H]2C(=O)OCOC(=O)c1ccc[n+](C)c1.[I-] (some centres undefined)', '3.4 min'),
  ('Cc1onc(-c2c(Cl)cccc2Cl)c1C(=O)NC1C(=O)N2C1SC(C)(C)[C@@H]2C(=O)OCOC(=O)c1ccc[n+](C)c1.[I-] (some centres undefined)', '3.9 min');

Find the recorded half-life belonging to COc1cccc(OC)c1C(=O)NC1C(=O)N2C1SC(C)(C)[C@@H]2C(=O)OCOC(=O)c1ccc[n+](C)c1.[I-] (some centres undefined) and report it. 3.6 min

###

Recorded ko by entry
Experiment: Second-order oxidation rate constant determined using ferricyanide
Assay type: ADME
# output: bare number, implied unit M⁻¹ s⁻¹

Sample answers from the record:
INSERT INTO assay_data (molecule, unit_of_measurement, obs_value) VALUES
  ('Cc1onc(-c2ccccc2)c1C(=O)NC1C(=O)N2C1SC(C)(C)[C@@H]2C(=O)OCOC(=O)C1=CN(C)C=CC1 (some centres undefined)', 'M⁻¹ s⁻¹', 0.48),
  ('Cc1onc(-c2ccccc2Cl)c1C(=O)NC1C(=O)N2C1SC(C)(C)[C@@H]2C(=O)OCOC(=O)C1=CN(C)C=CC1 (some centres undefined)', 'M⁻¹ s⁻¹', 0.36),
  ('COc1cccc(OC)c1C(=O)NC1C(=O)N2C1SC(C)(C)[C@@H]2C(=O)OCOC(=O)C1=CN(C)C=CC1 (some centres undefined)', 'M⁻¹ s⁻¹', 0.701);

Here is the next item to consider.
I am curious: what ko value has been reported for Cc1onc(-c2c(Cl)cccc2Cl)c1C(=O)NC1C(=O)N2C1SC(C)(C)[C@@H]2C(=O)OCOC(=O)C1=CN(C)C=CC1 (some centres undefined) ? 0.23
